Hey, just so you know, these numbers are from ChEMBL document CHEMBL3988442.

Tested on: Trypanosoma brucei
Assay: Trypanosoma brucei 72 hour study
Format: functional, organism-based
Parameters: scale not given: in the data most compounds retested in dose-response had high values
Conditions: 30.3 µM; […]
Among all 66,000 compounds or so, about 960 (1.5%) showed an effect of 50% or more. Many of the other results were omitted from the sample, so strong results are more common in it than they were.
reported.metric: Percent Effect (%)
# value in %; strip the unit string

Given item `O=C(O)C(F)(F)F.c1cc(CN2C[C@H](OCC3CCOCC3)[C@H]3COC[C@H]32)co1` , the value recorded as its Percent Effect is -13.64

Given item CN(C)C(=O)Cc1nc(CN2CCCCC2Cn2cncn2)cs1 (stereo unspecified) , the value recorded as its Percent Effect is -54.68

Given item `Cn1nc(C(=O)NCc2cccs2)c2c1CCS(=O)(=O)C2` , the value recorded as its Percent Effect is -10.45

Given item `CC(=O)N1CCC(n2nccc2-c2cnc(N)nc2)CC1` , the value recorded as its Percent Effect is -9.866

Given item `O=C1CCNc2ncc(-c3ccccc3Cl)cc2CN1C1CC1` , the value recorded as its Percent Effect is 10.61

Given item NC[C@H]1CC[C@H](C(NC(=O)CC2CCCCC2)c2ccccn2)CC1 (stereo partly specified) , the value recorded as its Percent Effect is -8.457

====

Please provide measured Percent Effect for the entries that follow.
Test system: Trypanosoma brucei
Assay: Trypanosoma brucei 72 hour study
Format: functional, organism-based
Parameters: scale not given: in the data most compounds retested in dose-response had high values
Conditions: 30.3 µM; […]
About 960 (1.5%) of roughly 66,000 compounds showed an effect of 50% or more. For the sample, strong results were picked, then their nearest neighbours and some compounds at random.
# value in %; strip the unit string

Given item Cl.Cl.O=C(CN1CCN(CC(O)C2CC2)CC1)NCc1ccccc1 (configuration not stated) , the value recorded as its Percent Effect is -20.63

Given item `CN(C)C(=O)[C@]12CCCN(CC3CC3)C[C@H]1CN(c1ccccn1)C2.O=C(O)C(F)(F)F.O=C(O)C(F)(F)F` , the value recorded as its Percent Effect is 0.08001

Given item `CC(C)N1CCC2(CCCN(c3nccc(C(F)(F)F)n3)C2)CC1.O=C(O)C(F)(F)F` , the value recorded as its Percent Effect is 63.32

Given item `O=C(O)C(F)(F)F.O=C([C@H]1C[C@@H]2CCN(c3cccc(F)c3)C[C@H]2O1)N1CCCCO1` , the value recorded as its Percent Effect is -0.6141

Given item CCCc1nc(CN2CCCCC2Cn2cncn2)cs1 (configuration not stated) , the value recorded as its Percent Effect is 101.4

Given item Cc1cccc(-c2nc(N)nc3c2CN(C(=O)c2ccncn2)C3C)c1 (configuration not stated) , the value recorded as its Percent Effect is -0.8654

Given item `CC(C)c1nnsc1CN1CCc2[nH]nc(-c3ccc(Cl)cc3)c2C1` , the value recorded as its Percent Effect is 100.2

Given item CCN1CCOCC2(CCCN(C(=O)c3ccccc3F)C2)C1.O=C(O)C(F)(F)F (configuration not stated) , the value recorded as its Percent Effect is -73.72

Given item Cc1nc(Nc2nccs2)cc(C2CCCN2)n1.Cl (configuration not stated) , the value recorded as its Percent Effect is 99.83

Given item Cc1nc(Nc2ncc(C)s2)cc(C2CCCN2S(C)(=O)=O)n1 (configuration not stated) , the value recorded as its Percent Effect is -10.42

Given item Cc1nc(Nc2ncc(C)s2)cc(C2CCCN2)n1.Cl (configuration not stated) , the value recorded as its Percent Effect is 99.89

Given item `CCc1nc(C)sc1CN1CCc2[nH]nc(-c3ccc(F)c(F)c3)c2C1` , the value recorded as its Percent Effect is 9.305

Given item Cc1nc(Nc2nnc(C)s2)cc(C2CCCN2)n1.Cl (configuration not stated) , the value recorded as its Percent Effect is -18.52

Given item O=C(O)C(F)(F)F.O=C1CC2(CCN(CC3CCOC3)CC2)c2ccccc2N1CC1CC1 (configuration not stated) , the value recorded as its Percent Effect is -4.569

Given item `O=C(NCc1ccco1)[C@H]1C[C@@H]2CCN(c3cccc(F)c3)C[C@H]2O1.O=C(O)C(F)(F)F` , the value recorded as its Percent Effect is 0.588

Given item `Cc1ccc(C(=O)N2CCc3ncc(Cn4cccn4)n3CC2)cn1` , the value recorded as its Percent Effect is -7.438

Given item CCCc1nc(CN2CCCC2Cn2cccn2)cs1 (configuration not stated) , the value recorded as its Percent Effect is 100.2

Given item Cc1cccc(-c2nc(N)nc3c2CN(C(=O)c2cc(C)n[nH]2)C3C)c1 (configuration not stated) , the value recorded as its Percent Effect is 90.24

Given item `CC(C)c1nnsc1CN1CCc2[nH]nc(-c3ccc(F)c(F)c3)c2C1` , the value recorded as its Percent Effect is 8.442

Given item Cc1nc(Nc2nncs2)cc(C2CCCN2)n1.Cl (configuration not stated) , the value recorded as its Percent Effect is -19.68

Given item `Cc1ccsc1-c1nnc(C2CCN(Cc3ccc(F)cc3)CC2)o1` , the value recorded as its Percent Effect is 56.66

Given item CC(C)c1nc(CN2CCCCC2Cn2cncn2)cs1 (configuration not stated) , the value recorded as its Percent Effect is 7.247

Given item Cc1ccc(CN2CCC3(C2)C(=O)N(CC2CC2)c2ccccc23)s1.O=C(O)C(F)(F)F (configuration not stated) , the value recorded as its Percent Effect is 92.57

Given item CC1c2ncc(COc3cccnc3)n2CCN1Cc1ccco1 (configuration not stated) , the value recorded as its Percent Effect is -3.756

Given item COc1ccc(Cl)cc1C(C(=O)O)N1CCSCC1 (configuration not stated) , the value recorded as its Percent Effect is -71.2

Given item `CCOCCCNCc1cc2c(C)cc(C)cc2n2c(=O)n(C)nc12` , the value recorded as its Percent Effect is 2.995

Given item `Cc1cc(C)c2cc(CNCc3ccccc3)c3nn(C)c(=O)n3c2c1` , the value recorded as its Percent Effect is 17.22

Given item `CN1CCN(Cc2cnc3n2CCN(CCc2ccccc2)C3)CC1.O=C(O)C(F)(F)F.O=C(O)C(F)(F)F.O=C(O)C(F)(F)F` , the value recorded as its Percent Effect is -12.43

Given item `CN(C)C(=O)COC[C@]12COC[C@H]1CN(Cc1ccccc1)C2.O=C(O)C(F)(F)F` , the value recorded as its Percent Effect is -79.79

Given item `COc1ccc(CN(C)[C@@H]2COC[C@H]2c2ccc(F)cc2)c(OC)c1.O=C(O)CC(O)(CC(=O)O)C(=O)O` , the value recorded as its Percent Effect is 4.622

Given item `Cc1cc(C)c2cc(CNCc3ccc(C)o3)c3nn(C)c(=O)n3c2c1` , the value recorded as its Percent Effect is -8.702

Given item `Cc1cc(C)c2cc(CNCc3ccco3)c3nn(C)c(=O)n3c2c1` , the value recorded as its Percent Effect is 8.532

Given item CC(C)CCN1C2(CCN(C(=O)CN(C)C)C2)c2ccccc2S1(=O)=O.O=C(O)C(F)(F)F (configuration not stated) , the value recorded as its Percent Effect is -2.24

Given item `Cc1ncsc1-c1nnc(C2CCN(Cc3ccc(Cl)cc3)CC2)o1` , the value recorded as its Percent Effect is 0.5336

Given item `CN(C)CCN1CCC2(CCN(C(=O)c3ccncc3)CC2)C1=O.O=C(O)C(F)(F)F.O=C(O)C(F)(F)F` , the value recorded as its Percent Effect is -21.17

Given item Cl.c1cn(-c2cnc(C3CCCNC3)cn2)cn1 (configuration not stated) , the value recorded as its Percent Effect is -22.3

Given item `Cc1cc(C)c2cc(CNC(C)C)c3nn(C)c(=O)n3c2c1` , the value recorded as its Percent Effect is 99.68

Given item `CN(Cc1ccc(C#N)cc1)c1ncc(C(N)=O)cc1Cl` , the value recorded as its Percent Effect is 12.46

Given item `CCCNCc1cc2c(C)cc(C)cc2n2c(=O)n(C)nc12` , the value recorded as its Percent Effect is 24.54

Given item `COCCNCc1cc2c(C)cc(C)cc2n2c(=O)n(C)nc12` , the value recorded as its Percent Effect is 39.03

Given item COc1ccc(C(=O)NCCCOC(C)c2ccccc2)c(OC)c1 (configuration not stated) , the value recorded as its Percent Effect is 17.87

Given item `O=C(c1ccoc1)N1CCc2ncc(Cn3cccn3)n2CC1` , the value recorded as its Percent Effect is -11.59
